These entries and their values trace back to ChEMBL document CHEMBL1149664.

Kapp reference
- TARGET OR SYSTEM: Coagulation factor X (Homo sapiens) (UniProt P00742)
- Sequence (P00742 41-179 limits assumed): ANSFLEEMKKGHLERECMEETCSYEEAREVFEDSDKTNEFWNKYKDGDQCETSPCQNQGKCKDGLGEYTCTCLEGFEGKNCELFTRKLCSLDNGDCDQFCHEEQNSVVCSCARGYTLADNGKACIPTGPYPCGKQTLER
- Sequence (P00742 235-488 limits assumed): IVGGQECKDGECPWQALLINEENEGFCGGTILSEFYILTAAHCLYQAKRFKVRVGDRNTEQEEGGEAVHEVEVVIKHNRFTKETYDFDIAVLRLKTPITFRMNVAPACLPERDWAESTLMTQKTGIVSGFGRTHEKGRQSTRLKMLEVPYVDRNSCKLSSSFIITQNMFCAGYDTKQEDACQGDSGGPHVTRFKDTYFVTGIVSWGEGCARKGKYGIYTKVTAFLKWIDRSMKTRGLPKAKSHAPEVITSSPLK
- ASSAY EXPLANATION: Inhibition of human factor 10a

// below: answered compounds
>  <COMPOUND>
CC(C)(CN)COc1cc(C(C)(C)C)ccc1C(=O)Nc1ccccc1C(=O)Nc1ccc(Cl)cn1

>  <TARGET OR SYSTEM>
Coagulation factor X (Homo sapiens) (UniProt P00742)

>  <RESULT>
76 10^6L/mol

$$$$
>  <COMPOUND>
NCCCOc1cc(N2CCCCCC2)ccc1C(=O)Nc1ccccc1C(=O)Nc1ccc(Cl)cn1

>  <TARGET OR SYSTEM>
Coagulation factor X (Homo sapiens) (UniProt P00742)

>  <RESULT>
130 10^6L/mol

$$$$
>  <COMPOUND>
COc1ccc(NC(=O)c2ccccc2NC(=O)c2ccc(C(C)(C)C)cc2)cc1

>  <TARGET OR SYSTEM>
Coagulation factor X (Homo sapiens) (UniProt P00742)

>  <RESULT>
5 10^6L/mol

$$$$
>  <COMPOUND>
CN1CCCN(c2ccc(C(=O)Nc3ccccc3C(=O)Nc3ccc(Cl)cn3)c(OCCCN)c2)CC1

>  <TARGET OR SYSTEM>
Coagulation factor X (Homo sapiens) (UniProt P00742)

>  <RESULT>
8970 10^6L/mol

$$$$
>  <COMPOUND>
NCCCOc1cc(N2CCSCC2)ccc1C(=O)Nc1ccccc1C(=O)Nc1ccc(Cl)cn1

>  <TARGET OR SYSTEM>
Coagulation factor X (Homo sapiens) (UniProt P00742)

>  <RESULT>
709 10^6L/mol

$$$$
>  <COMPOUND>
CC(C)(C)OC(=O)N1CCCCC1COc1cc(C(C)(C)C)ccc1C(=O)Nc1ccccc1C(=O)Nc1ccc(Cl)cn1 (stereo not drawn)

>  <TARGET OR SYSTEM>
Coagulation factor X (Homo sapiens) (UniProt P00742)

>  <RESULT>
3.1 10^6L/mol

$$$$
>  <COMPOUND>
CC(C)(C)c1ccc(C(=O)Nc2ccccc2C(=O)Nc2ccc(Cl)cn2)c(OC2CCN(CC3CC3)CC2)c1

>  <TARGET OR SYSTEM>
Coagulation factor X (Homo sapiens) (UniProt P00742)

>  <RESULT>
1370 10^6L/mol

$$$$
>  <COMPOUND>
NCCCOc1cc(N2CCCC2)ccc1C(=O)Nc1ccccc1C(=O)Nc1ccc(Cl)cn1

>  <TARGET OR SYSTEM>
Coagulation factor X (Homo sapiens) (UniProt P00742)

>  <RESULT>
3010 10^6L/mol

$$$$

What value of Kapp has been reported for the following compound? COc1ccc(C(=O)Nc2ccccc2C(=O)Nc2ccc(C(C)(C)C)cc2)cc1
0.03 10^6L/mol

// lookup Kapp for CC(C)(C)c1ccc(C(=O)Nc2ccccc2C(=O)Nc2ccc(Cl)cn2)cc1
42 10^6L/mol

// query Kapp value for entry NCCCOc1cc(N2CCCCC2)ccc1C(=O)Nc1ccccc1C(=O)Nc1ccc(Cl)cn1
323 10^6L/mol

Suppose we examine the compound CCCN1CCC(Oc2cc(C(C)(C)C)ccc2C(=O)Nc2ccccc2C(=O)Nc2ccc(Cl)cn2)CC1 ; what Kapp value has been reported?
1940 10^6L/mol

// query Kapp value for entry CC(C)(C)c1ccc(C(=O)Nc2ccccc2C(=O)Nc2ccc(Cl)cn2)c(OC2CCN(C(=O)Cn3cnnn3)CC2)c1
448 10^6L/mol
